Could you please report measured IC50 for the items listed next?
testedSystem: human Werner helicase (WRN, amino acids 517-1235 with L1074F point mutation) (Homo sapiens (Human), UniProt Q14191, L1074F)
Sequence (Q14191 other isoform, or with tags, fused parts or gaps L1074F (already in the parent)): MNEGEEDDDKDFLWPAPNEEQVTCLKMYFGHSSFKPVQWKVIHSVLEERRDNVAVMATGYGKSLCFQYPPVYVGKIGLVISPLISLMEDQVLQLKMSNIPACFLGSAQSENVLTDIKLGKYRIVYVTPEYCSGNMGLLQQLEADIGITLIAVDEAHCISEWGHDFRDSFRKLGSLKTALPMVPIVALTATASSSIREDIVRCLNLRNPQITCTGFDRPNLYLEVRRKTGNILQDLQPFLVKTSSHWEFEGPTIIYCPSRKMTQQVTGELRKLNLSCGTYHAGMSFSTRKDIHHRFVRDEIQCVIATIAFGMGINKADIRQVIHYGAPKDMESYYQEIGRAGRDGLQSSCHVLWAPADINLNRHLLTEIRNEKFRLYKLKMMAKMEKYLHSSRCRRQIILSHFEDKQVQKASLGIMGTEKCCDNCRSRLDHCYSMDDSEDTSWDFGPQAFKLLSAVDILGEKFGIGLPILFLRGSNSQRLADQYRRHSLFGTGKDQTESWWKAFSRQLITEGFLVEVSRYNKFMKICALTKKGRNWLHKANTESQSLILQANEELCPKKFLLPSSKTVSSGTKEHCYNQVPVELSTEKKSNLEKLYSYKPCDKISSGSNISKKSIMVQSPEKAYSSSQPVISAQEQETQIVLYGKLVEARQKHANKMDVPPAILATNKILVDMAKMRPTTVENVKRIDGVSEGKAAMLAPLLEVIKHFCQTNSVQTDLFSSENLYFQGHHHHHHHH
assayNotes: WRN (BV08) ADP-Glo assay
details: human WRN (aa 517-1235, L1074F), read-out: ADP-Glo_hWRN_IC50

For record "CCc1c(N2CCN(C(=O)c3c(OC)ncc(C)c3O)CC2)c(=O)c2nn(-c3ccnc(OC)c3)nc2n1CC(=O)NC1CC2(CCCC2)C1" the listed IC50 is 5 to 50 nM

Measured IC50, CCc1c(N2CCN(C(=O)c3c(OC)ncc(C4CCOC4)c3O)CC2)c(=O)c2nn(-c3ccnc(OC)c3)nc2n1CC(=O)NC12CC(C(C)C)(C1)C2 (stereo not shown) : 5 to 50 nM

What the record says about "CCc1c(N2CCN(C(=O)c3ncc4c(c3O)CCO4)CC2)c(=O)c2nn(-c3ccnc(OC)c3)nc2n1CC(=O)Nc1ccc(C(F)(F)F)cc1Cl" : IC50 is ≤ 5 nM

GET /value?item= "CCc1c(N2CCN(C(=O)c3c(O)ccc4ncoc34)[C@H]3CC[C@@H]32)c(=O)c2nn(-c3ccnc(OC)c3)nc2n1CC(=O)NC12CC(C(C)C)(C1)C2" &field=IC50 returns ≤ 5 nM

Reported IC50 for "CCc1c(N2CCN(C(=O)c3ncc4c(c3O)OCC4)CC2)c(=O)c2nn(C3=CCOCC3)nc2n1CC(=O)Nc1ccc(C(F)(F)F)cc1Cl" was ≤ 5 nM

The recorded IC50 for "CCc1c(N2CCN(C(=O)c3cccc4c3OCC4)[C@H]3CC[C@@H]32)c(=O)c2nn(-c3ccnc(OC)c3)nc2n1CC(=O)Nc1ccc(C(F)(F)F)cc1Cl" is 5 to 50 nM

Sure, the documented IC50 for CCc1c(N2CCN(C(=O)c3ncnc(C)c3O)[C@H]3CC[C@@H]32)c(=O)c2nn(-c3ccnc(OC)c3)nc2n1CC(=O)NC12CC(OC(F)(F)F)(C1)C2 [Compound I-40] is 5 to 50 nM

The compound listed as "CCc1c(N2CCN(C(=O)c3cn(C)nc3OC)[C@H]3CC[C@@H]32)c(=O)c2nn(C3=CCOCC3)nc2n1CC(=O)NC12CC(C(C)C)(C1)C2" shows IC50 equal to 5 to 50 nM

IC50 reading for "CCc1c(N2CCN(C(=O)c3ncnc(C)c3O)[C@H]3CC[C@@H]32)c(=O)c2nn(-c3cc(C)n(C)n3)nc2n1CC(=O)NC12CC(C3CC3)(C1)C2" : 5 to 50 nM

Reported IC50 of "CCc1c(N2CCN(C(=O)c3c(OC)ncc(C)c3O)CC2)c(=O)c2nn(C3=CCOCC3)nc2n1CC(=O)NC12CC(C3CC3)(C1)C2" : 5 to 50 nM

"CCc1c(N2CCN(C(=O)c3ncnc(C)c3O)[C@H]3CC[C@@H]32)c(=O)c2nn(-c3ccnc(OC)c3)nc2n1CC(=O)NC12CC(C3CCC3)(C1)C2" yielded IC50 of ≤ 5 nM

The value of IC50 measured for the compound CCc1c(N2CCN(C(=O)c3ncnc(C)c3O)[C@H]3CC[C@@H]32)c(=O)c2nn(-c3ccnc(OC)c3)nc2n1CC(=O)NC1CC2(CC(C)C2)C1 (stereo partly shown) turned out to be 5 to 50 nM

# IC50 of CCc1c(N2CCN(C(=O)c3ncnc(C)c3O)[C@H]3CC[C@@H]32)c(=O)c2nn(-c3ccnc(OC)c3)nc2n1CC(=O)NC1CC2(CC(F)C2)C1 (stereo partly shown) = 5 to 50 nM

The compound identified as "CCOc1ncc(C)c(O)c1C(=O)N1CCN(c2c(CC)n(CC(=O)NC34CC(C(C)C)(C3)C4)c3nn(-c4ccnc(OC)c4)nc3c2=O)CC1" registered its IC50 at 5 to 50 nM

Lookup result for "CCc1c(N2CCN(C(=O)c3ncnc(C)c3O)[C@H](C)C2)c(=O)c2nn(-c3ccnc(OC)c3)nc2n1CC(=O)NC12CC(C3CC3)(C1)C2" ; measured IC50: 5 to 50 nM

Record "CCc1c(N2CCN(C(=O)c3cccc4c3OCCN4C)[C@H]3CC[C@@H]32)c(=O)c2nn(C3=CCOCC3)nc2n1CC(=O)NC12CC(C3CC3)(C1)C2" , field IC50: 5 to 50 nM

The reported IC50 of the compound "CCc1c(N2CCN(C(=O)c3c(OC)ncc(F)c3O)[C@H]3CC[C@@H]32)c(=O)c2nn(-c3ccnc(OC)c3)nc2n1CC(=O)NC12CC(C(C)C)(C1)C2" was ≤ 5 nM

Entry "CCc1c(N2CCN(C(=O)c3c(OC)ncc(C)c3O)[C@H]3CC[C@@H]32)c(=O)c2nn(-c3ccnc(OC)c3)nc2n1CC(=O)NC12CC(C(F)(F)F)(C1)C2" ; IC50 = 5 to 50 nM

Recorded IC50 (compound "CCc1c(N2CCN(C(=O)c3csnc3OC)[C@H]3CC[C@@H]32)c(=O)c2nn(C3=CCOCC3)nc2n1CC(=O)NC12CC(C(C)C)(C1)C2" ): 5 to 50 nM

Input CCc1c(N2CCN(C(=O)c3ncnc(C)c3O)[C@H]3CC[C@@H]32)c(=O)c2nn(C3=CCOCC3)nc2n1CC(=O)NC12CC(C(C)C)(C1)C2 [Compound I-49] . Output IC50: 5 to 50 nM

Lab note: measured IC50 of CCc1c(N2CCN(C(=O)c3ncnc(C)c3O)[C@H]3CC[C@@H]32)c(=O)c2nn(C3CC3(F)F)nc2n1CC(=O)Nc1ccc(C(F)(F)F)cc1Cl (stereo partly shown) was ≤ 5 nM

So for "CCc1c(N2CCN(C(=O)c3cccc4ncoc34)[C@H]3CC[C@@H]32)c(=O)c2nn(-c3ccnc(OC)c3)nc2n1CC(=O)Nc1ccc(C(F)(F)F)cc1Cl" , the logged IC50 turned out to be 5 to 50 nM

Reference source for all entries: patent US20250129069A1
